Measured shrunken log2 fold change, listed per entry.
Test system: Escherichia coli TOP10;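 also: peptides expressed intracellularly from a pBAD plasmid library in pooled LB shake-flask culture, induced with 0.3% L-arabinose, DNA abundance read by NGS, three biological replicates, DESeq2 with apeglm shrinkage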
Measurement protocol: shrunken log2 fold change of peptide-encoding DNA abundance (4.5 h post-induction vs induction); higher = less antimicrobial activity (less host growth inhibition)
Run parameters: time post-induction: 4.5 h; library: site-saturation at positions 5, 18, 19, 20

Below are worked cases with known answers.
{"Sequence content": "RRIRKRPPRLPRPRPRPYFWPRP", "Reported": -0.0468}
{"Sequence content": "RRIRRRPPRLPRPRPRPQEPPRP", "Reported": 0.0839}
{"Sequence content": "RRIRIRPPRLPRPRPRPWYRPRP", "Reported": -0.678}
{"Sequence content": "RRIRGRPPRLPRPRPRPQLAPRP", "Reported": 1.19}
{"Sequence content": "RRIRIRPPRLPRPRPRPRHIPRP", "Reported": -0.19}
{"Sequence content": "RRIRNRPPRLPRPRPRPEFWPRP", "Reported": 0.0698}

q: Look up shrunken log2 fold change for this sequence: "RRIRGRPPRLPRPRPRPGEFPRP"
a: 0.329

q: # get_value(readout='shrunken log2 fold change', item= "RRIRFRPPRLPRPRPRPFKRPRP" )
a: -0.813

q: Tell me the measured shrunken log2 fold change of "RRIRMRPPRLPRPRPRPPSPPRP" , please.
a: 1.57

q: Look up shrunken log2 fold change for this sequence: "RRIRVRPPRLPRPRPRPSNTPRP"
a: -0.417

q: For the sequence shown here, "RRIRIRPPRLPRPRPRPSIAPRP" , give the reported shrunken log2 fold change.
a: -0.628
